The entries below are paired with their reported CC50.
Test system: CCRF-CEM
Assay: Cytotoxic concentration of compound required to reduce the viability of mock infected CEM cells by 50%
Type: functional
Settings: Homo sapiens
Recorded Metric: CC50

                                   molecule  recorded_metric  endpoint_value
0  Cc1cn(C2C=CC(COC(=O)CN(C)C)O2)c(=O)[nH]c1=O (configuration not stated)             CC50          456 µM
1  Cc1cn(C2C=CC(COC(=O)CN3CCN(c4cc5c(cc4F)c(=O)c(C(=O)O)cn5C4CC4)CC3)O2)c(=O)[nH]c1=O (configuration not stated)             CC50          695 µM
2  Cc1cn(C2C=CC(COC(=O)CNC(=O)c3ccncn3)O2)c(=O)[nH]c1=O (configuration not stated)             CC50          567 µM
3  Cc1cn(C2C=CC(COC(=O)CN3CCNCC3)O2)c(=O)[nH]c1=O (configuration not stated)             CC50       > 1000 µM
4  Cc1cn(C2C=CC(COC(=O)CNNC(=O)c3ccncc3)O2)c(=O)[nH]c1=O (configuration not stated)             CC50        > 200 µM
5  CCn1cc(C(=O)O)c(=O)c2cc(F)c(N3CCN(CC(=O)OCC4C=CC(n5cc(C)c(=O)[nH]c5=O)O4)CC3)cc21 (configuration not stated)             CC50          210 µM
6  Cc1cn([C@H]2C=C[C@@H](CO)O2)c(=O)[nH]c1=O             CC50        > 100 µM

###

Listed below: log10 MIC values for each entry.
Test system: Staphylococcus aureus
Assay: Antibacterial activity against Staphylococcus aureus
Type: functional
Recorded Metric: log10 MIC (log10 of the value in µg/mL)

>>> print(df.to_string())
                                   molecule  endpoint_value
0  Cc1cn(C2C=CC(COC(=O)CNNC(=O)c3ccncc3)O2)c(=O)[nH]c1=O (stereo unspecified)            2.19
1  Cc1cn(C2C=CC(COC(=O)CN3CCN(c4cc5c(cc4F)c(=O)c(C(=O)O)cn5C4CC4)CC3)O2)c(=O)[nH]c1=O (stereo unspecified)            0.69
2  Cc1cn(C2C=CC(COC(=O)CNC(=O)c3ccncn3)O2)c(=O)[nH]c1=O (stereo unspecified)            3.10
3  O=C(O)c1cn(C2CC2)c2cc(N3CCNCC3)c(F)cc2c1=O [CIPROFLOXACIN]           -2.02
4  CCn1cc(C(=O)O)c(=O)c2cc(F)c(N3CCN(CC(=O)OCC4C=CC(n5cc(C)c(=O)[nH]c5=O)O4)CC3)cc21 (stereo unspecified)            0.99
5  CCn1cc(C(=O)O)c(=O)c2cc(F)c(N3CCNCC3)cc21 [NORFLOXACIN]           -0.82

###

System: Priestia megaterium
Test: Antibacterial activity against Bacillus megatherium
Assay type: functional
Recorded log10 of MIC values for a group of molecules are listed next.
Recorded Metric: log10 of MIC (log10 of the value in µg/mL)

                                   molecule  recorded_metric  endpoint_value
0  CCn1cc(C(=O)O)c(=O)c2cc(F)c(N3CCNCC3)cc21 [NORFLOXACIN]     log10 of MIC           -1.12
1  O=C(O)c1cn(C2CC2)c2cc(N3CCNCC3)c(F)cc2c1=O [CIPROFLOXACIN]     log10 of MIC           -2.02
2  Cc1cn(C2C=CC(COC(=O)CNNC(=O)c3ccncc3)O2)c(=O)[nH]c1=O (stereo unspecified)     log10 of MIC            0.39
3  Cc1cn(C2C=CC(COC(=O)CN3CCN(c4cc5c(cc4F)c(=O)c(C(=O)O)cn5C4CC4)CC3)O2)c(=O)[nH]c1=O (stereo unspecified)     log10 of MIC           -0.52
4  CCn1cc(C(=O)O)c(=O)c2cc(F)c(N3CCN(CC(=O)OCC4C=CC(n5cc(C)c(=O)[nH]c5=O)O4)CC3)cc21 (stereo unspecified)     log10 of MIC           -0.52
5  Cc1cn(C2C=CC(COC(=O)CNC(=O)c3ccncn3)O2)c(=O)[nH]c1=O (stereo unspecified)     log10 of MIC            1.59

###

Test system: Mycobacterium tuberculosis
Assay: Antimycobacterial activity against Mycobacterium tuberculosis strain H37Rv
Format: functional
Set-up: concentration or dose not given beside the values
Recorded Metric: Inhibition (%)

In [3]: df
Out[3]:
                                   molecule  endpoint_value
0  Cc1cn(C2C=CC(COC(=O)CN3CCN(c4cc5c(cc4F)c(=O)c(C(=O)O)cn5C4CC4)CC3)O2)c(=O)[nH]c1=O (stereo not given)             100
1  Cc1cn(C2C=CC(COC(=O)CNC(=O)c3ccncn3)O2)c(=O)[nH]c1=O (stereo not given)               0
2  Cc1cn(C2C=CC(COC(=O)CNNC(=O)c3ccncc3)O2)c(=O)[nH]c1=O (stereo not given)              90
3  Cc1cn([C@H]2C=C[C@@H](CO)O2)c(=O)[nH]c1=O               0
4  CCn1cc(C(=O)O)c(=O)c2cc(F)c(N3CCN(CC(=O)OCC4C=CC(n5cc(C)c(=O)[nH]c5=O)O4)CC3)cc21 (stereo not given)              98
